Target: APJ (orphan G protein-coupled receptor protein)
Sequence (P35414 whole entry): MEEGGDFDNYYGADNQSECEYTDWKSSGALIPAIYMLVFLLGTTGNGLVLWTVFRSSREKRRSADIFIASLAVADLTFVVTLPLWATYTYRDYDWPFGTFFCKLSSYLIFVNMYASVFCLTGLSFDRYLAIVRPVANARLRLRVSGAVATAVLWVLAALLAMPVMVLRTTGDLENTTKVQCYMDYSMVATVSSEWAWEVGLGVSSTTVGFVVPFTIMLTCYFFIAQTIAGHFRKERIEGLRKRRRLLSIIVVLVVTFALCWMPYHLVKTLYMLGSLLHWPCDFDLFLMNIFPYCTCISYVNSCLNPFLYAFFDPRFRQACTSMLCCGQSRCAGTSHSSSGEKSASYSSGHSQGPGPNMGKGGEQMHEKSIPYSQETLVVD
Assay: radioligand competition, 125I-labelled compound of Ref. Ex. 1 (100 pM), CHO-A10 membrane fraction
Non-standard residues stand in square brackets, D forms with d. No end group written: not given here. Cha = N[C@@H](CC1CCCCC1)C(=O)O
For each record, write down the corresponding IC50.
Hi! Could you send only the number? It should be in nM, unit omitted.

Incoming: Give a short answer stating reported IC50 for XRPRLSHKGPXPF (N-terminal pGlu; Cha non-natural residue; peptide derivative; Xaa on the 1st position means pGlu.; Xaa on the 11th position means Cha.) [pGlu-Arg-Pro-Arg-Leu-Ser-His-Lys-Gly-Pro-Cha-Pro-Phe] .
Outgoing: 13

Incoming: // fetch IC50 given entry RPRLSHAGP[Cha]PX (not fully specified (residue 12); printed as Arg-Pro-Arg-Leu-Ser-His-Ala-Gly-Pro-Cha-Pro-Phe(Cl)) [Arg-Pro-Arg-Leu-Ser-His-Ala-Gly-Pro-Cha-Pro-Phe(Cl)]
Outgoing: 0.58

Incoming: Tell me IC50 reported for RPRLSARGP[Cha]PX (not fully specified (residue 12); printed as Arg-Pro-Arg-Leu-Ser-Ala-Arg-Gly-Pro-Cha-Pro-Phe(Cl)) [Arg-Pro-Arg-Leu-Ser-Ala-Arg-Gly-Pro-Cha-Pro-Phe(Cl)]
Outgoing: 1.2
